Recorded values, source patent US20240092835A1.

biological target: CD94/NKG2A (Homo sapiens, UniProt P26715+Q13241); assay: Steady-state surface plasmon resonance of peptide-HLA-E complex with CD94/NKG2A; assay type: binding; conditions: steady-state SPR; CD94/NKG2A analyte concentration 102.400 μM
Sequence (P26715 94-233 limits assumed): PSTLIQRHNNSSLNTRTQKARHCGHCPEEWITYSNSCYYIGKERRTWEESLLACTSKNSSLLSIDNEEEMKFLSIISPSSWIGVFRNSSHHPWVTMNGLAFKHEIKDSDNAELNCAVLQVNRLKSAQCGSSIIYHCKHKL
Sequence (Q13241 32-179 limits assumed): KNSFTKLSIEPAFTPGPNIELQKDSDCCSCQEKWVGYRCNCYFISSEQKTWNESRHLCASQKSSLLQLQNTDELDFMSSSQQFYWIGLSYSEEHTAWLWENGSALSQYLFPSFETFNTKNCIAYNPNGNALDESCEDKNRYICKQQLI
Where no end group is shown, it is not given here.
Parameter Binding of peptide-HLA-E complexes to CD94/NKG2A normalized to a theoretical Rmax: see the listing below.
Answer as a number with no unit attached.

Field: example entries. Status: answers known.
VNPGRSLFL [human5, VNPGRSLFL]	0.461
TGPWRSLWI [human3, TGPWRSLWI]	0.250
QMPSRSLLF [human1, QMPSRSLLF]	0.719
TLPKRGLFL [human2, TLPKRGLFL]	0.718

Input line: Please look up its Binding of peptide-HLA-E complexes to CD94/NKG2A normalized to a theoretical Rmax: TAPARTMFL [human13, TAPARTMFL]
Output line: 0.615
